# System: α7 integrin (LacZ reporter in α7βgal+/− myoblasts)
# protocol_notes: Myoblast α7+/LacZ integrin FDG assay (Burkin assay in myoblasts, 96-well)
# Type: cell-based, mouse
# condition_description: 0.5 uM; α7+/LacZ myoblasts, 96-well
value_kind: Burkin Assay in Myoblasts, signal relative to DMSO
Would you mind answering with just the numeric figure?

The following molecules have reported results that may help.
{"molecule": "COc1ccc(S(=O)(=O)Nc2ccc(S(=O)(=O)Nc3nccs3)cc2)cc1", "observed": 1.024}
{"molecule": "Fc1ccc(-c2ccnc3nc(N4CCN(c5ccccc5)CC4)nn23)cc1", "observed": 1.159}
{"molecule": "O=CN1CCN(C(=O)CC(c2ccccc2)c2cc(Br)ccc2O)CC1 (stereo not drawn)", "observed": 1.175}

So what's the measured Burkin Assay in Myoblasts, signal relative to DMSO for this one? CC1CC(C)(C)NC(=S)N1CC(=O)N(C)Cc1ccccc1 (stereo not drawn) 0.9903

Requested field: Burkin Assay in Myoblasts, signal relative to DMSO. Item: "Cn1cc(CN2CCC(C(=O)Nc3cccc(-c4cscn4)c3)CC2)cn1" 1.162
